molecular target: full-length human PD-1 expressed on cells (human, UniProt Q15116 25-288); assay: cell-based or functional assay
Sequence (Q15116 25-288 limits assumed): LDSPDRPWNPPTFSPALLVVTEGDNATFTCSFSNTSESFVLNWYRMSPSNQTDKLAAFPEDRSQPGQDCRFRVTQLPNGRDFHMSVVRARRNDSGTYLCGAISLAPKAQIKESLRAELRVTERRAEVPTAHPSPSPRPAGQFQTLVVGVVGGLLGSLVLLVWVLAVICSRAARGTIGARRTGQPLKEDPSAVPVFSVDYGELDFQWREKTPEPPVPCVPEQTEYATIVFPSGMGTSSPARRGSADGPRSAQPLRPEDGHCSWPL
TEST_READOUT: hPD-1 blockade assay IC50 (µg/mL)
Quick reminder: number only, in µg/mL, skip the unit.

{"BINDER": "MAB-19-0217 (antibody, human IgG1, V domains shown, Chimeric rabbit/human antibody, human IgG1 constant parts with L234A and L235A (LALA); also called chimeric anti-PD-1 MAB-19-0217) VH: QSVEESGGRLVTPGTPLTLTCTVSGFSLSRYYMTWVRQAPGKGLEWIGIIYPDTGTTWYASWVKGRFTFSKTSSTTVDLKMTSPTTEDTATYFCARSTTDAQFNIWGPGTLVTVSS VL: AAVLTQTPSPVSAAVGGTVSISCQSSENVYTDNQLCWYQQKPGQRPKLLIYDASTLASGVPSRFSGSGSGTQFTLTISGVQSDDAATYYCAGGYSTTSDTTFGGGTEVVVK", "TEST_READOUT": "hPD-1 blockade assay IC50", "QUANTITATIVE_RESULT": 0.72}

For the next question, use this binder.
// query Query (binder): MAB-19-0208 (antibody, human IgG1, V domains shown, Chimeric rabbit/human antibody, human IgG1 constant parts with L234A and L235A (LALA); also called chimeric anti-PD-1 MAB-19-0208) VH: QSVEESGGRLVTPGTPLTLTCTVSGFSLSRYYISWVRQAPGKGLEWIGSFYADSGTTWYATWVKGRFTFSTASSTTVDLKMTSPTTEDTATYFCARNSGDAQFNIWGPGTLVTVSS VL: AAVLTQTPSPVSAAVGGTVSISCQSSESVYNKNQLCWYQQKPGQRPKLLIYDASTLASGVPSRFSGSGSGTQFTLTISDVQSDAAATYYCAGGYSVTSDTTFGGGTEVVVR ; field requested: hPD-1 blockade assay IC50
// result 0.87
